# EXPERIMENT_DESCRIPTION: In vivo pharmacokinetic study in beagle dogs after single administration
# CONDITION_CONTEXT: male, dog, plasma, 10 mg/kg, 10 mpk oral administration
OBSERVABLE: AUC(0-inf) (µM·h)

1) COCCN1C[C@@H](n2ccc(F)c2)[C@H](NC(=O)Nc2c(C)c(-c3cnc(C4(F)COC4)nc3)nn2-c2ccccc2)C1 ... 26.4

----------
# EXPERIMENT_DESCRIPTION: In vivo pharmacokinetic study in mice after single administration
# Set-up: species or system CD-1 mice
# CONDITION_CONTEXT: male, CD-1, mouse, plasma, 2 mg/kg, 2 mpk intravenous injection, read-out: Vdss
OBSERVABLE: Vd (L/kg)

1. COCCN1C[C@@H](n2ccc(F)c2)[C@H](NC(=O)Nc2c(C)c(-c3cnc(C4(F)COC4)nc3)nn2-c2ccccc2)C1 [Compound of formula (I)] ... 1.54

// provenance: patent US11708357B2
